Target: Mcs6 (Schizosaccharomyces pombe, UniProt Q12126, L87G)
Sequence (P36613 whole entry): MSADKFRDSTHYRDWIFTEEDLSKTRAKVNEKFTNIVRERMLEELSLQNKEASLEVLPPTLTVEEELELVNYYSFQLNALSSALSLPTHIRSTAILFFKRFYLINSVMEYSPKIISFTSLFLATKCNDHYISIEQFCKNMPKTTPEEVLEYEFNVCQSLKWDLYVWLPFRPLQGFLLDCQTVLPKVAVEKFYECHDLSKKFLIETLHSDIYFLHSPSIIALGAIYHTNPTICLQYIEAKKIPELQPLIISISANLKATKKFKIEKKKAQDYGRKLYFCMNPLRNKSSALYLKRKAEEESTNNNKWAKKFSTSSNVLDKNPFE
Sequence (Q12126 whole entry, stated change not applied): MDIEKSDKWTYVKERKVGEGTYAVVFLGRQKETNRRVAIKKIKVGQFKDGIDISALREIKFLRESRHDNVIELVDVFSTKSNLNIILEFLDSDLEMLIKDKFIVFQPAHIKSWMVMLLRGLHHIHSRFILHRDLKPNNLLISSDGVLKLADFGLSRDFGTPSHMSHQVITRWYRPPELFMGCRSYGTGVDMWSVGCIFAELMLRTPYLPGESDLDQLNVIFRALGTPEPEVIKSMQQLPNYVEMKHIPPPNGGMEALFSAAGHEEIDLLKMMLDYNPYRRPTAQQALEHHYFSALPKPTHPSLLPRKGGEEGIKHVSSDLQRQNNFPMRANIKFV
Sequence (O94684 whole entry, further chain): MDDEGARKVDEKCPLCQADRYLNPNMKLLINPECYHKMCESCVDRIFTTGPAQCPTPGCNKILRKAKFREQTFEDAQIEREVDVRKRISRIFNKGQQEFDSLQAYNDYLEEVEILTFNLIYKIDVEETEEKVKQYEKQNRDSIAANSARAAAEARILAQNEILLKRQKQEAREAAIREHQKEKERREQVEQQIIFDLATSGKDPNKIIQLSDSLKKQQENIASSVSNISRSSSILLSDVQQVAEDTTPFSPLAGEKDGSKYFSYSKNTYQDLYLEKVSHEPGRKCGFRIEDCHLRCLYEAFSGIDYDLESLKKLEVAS
Experiment: radiometric kinase assay with [γ-32P]-ATP on GST-Rpb1-CTD

>  <molecule smiles>
Cc1cccc(Cc2nn(C(C)(C)C)c3ncnc(N)c23)c1

>  <IC50>
~125 nM

$$$$
